Target: Kv1.3 potassium channel (Homo sapiens, UniProt P22001)
Sequence (P22001 whole entry): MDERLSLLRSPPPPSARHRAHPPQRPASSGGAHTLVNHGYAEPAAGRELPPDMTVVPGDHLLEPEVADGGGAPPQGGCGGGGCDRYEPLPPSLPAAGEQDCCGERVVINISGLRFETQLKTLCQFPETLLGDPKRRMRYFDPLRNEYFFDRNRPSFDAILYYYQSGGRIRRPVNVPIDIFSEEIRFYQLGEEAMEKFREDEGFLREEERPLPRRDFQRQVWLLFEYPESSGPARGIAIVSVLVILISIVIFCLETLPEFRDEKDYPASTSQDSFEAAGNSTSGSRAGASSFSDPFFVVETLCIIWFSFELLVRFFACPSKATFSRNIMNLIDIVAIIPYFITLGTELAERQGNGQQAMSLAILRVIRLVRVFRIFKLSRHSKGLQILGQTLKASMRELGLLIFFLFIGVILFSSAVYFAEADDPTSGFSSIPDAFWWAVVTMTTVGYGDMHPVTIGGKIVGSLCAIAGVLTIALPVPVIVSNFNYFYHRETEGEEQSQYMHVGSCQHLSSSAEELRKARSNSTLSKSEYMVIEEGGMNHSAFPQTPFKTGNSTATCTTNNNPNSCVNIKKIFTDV
Assay: Kv1.3 potassium channel blocker activity, automated whole-cell patch clamp (Patchliner)
Conditions: CHO-K1 cells stably expressing Kv1.3; whole cell current inhibition; read-out: Kv1.3_IC50
pIC50: −log10 of the molar value.
assay.metric: pIC50

Query: Read off the recorded pIC50 for N[C@@H](c1cc(Cl)c(Cl)cc1O)[C@@H]1CCC(=O)NC1 (single isomer, unassigned; diastereoisomer 2) [Compound 39]
Reply: > 5.00

Query: Read off the recorded pIC50 for Cc1cc(O)c([C@H](N)C2CCN(C(=O)[C@H](O)CO)CC2)cc1F [Compound 283]
Reply: > 5.00

Query: Read off the recorded pIC50 for CN1CC(C(=O)N2CCC([C@@H](N)c3cc(Cl)c(Cl)cc3O)CC2)NCC1=O (stereo partly shown) [Compound 300, Trifluoroacetic Acid]
Reply: > 6.30

Query: Read off the recorded pIC50 for N[C@@H](c1cc(Cl)c(Cl)cc1O)C1CCN(C(=O)C2CC(F)(F)C2)CC1 [Compound 161]
Reply: > 5.00

Query: Read off the recorded pIC50 for N[C@@H](c1cc(Cl)c(Cl)cc1O)C1CCN(C(=O)[C@@H]2CNCCO2)CC1 [Compound 99]
Reply: > 6.30

Query: Read off the recorded pIC50 for O=C([C@H]1CCNC1)N1CCC[C@@H]([C@H](O)c2c(O)ccc(Cl)c2Cl)CC1 (single isomer, unassigned; isomer 1) [Compound 322]
Reply: > 5.00

Query: Read off the recorded pIC50 for N[C@@H](c1cc(Cl)c(Cl)cc1O)C1CCN(S(=O)(=O)c2cn[nH]c2)CC1 [Compound 158, Trifluoroacetic Acid]
Reply: > 5.00

###

Molecular target: Kv1.3 potassium channel (Homo sapiens)
Test: Kv1.3 potassium channel blocker activity, automated whole-cell patch clamp (Patchliner)
Details: CHO-K1 cells stably expressing Kv1.3; whole cell current inhibition; read-out: Kv1.3_IC50
Field: IC50. Provide a value for each of the molecules that follow.

Query: Read off the recorded IC50 for N[C@@H](c1cc(Cl)c(Cl)cc1O)C1CCN(C(=O)C2CNCC2(F)F)CC1 (stereo partly shown)
Reply: < 10 µM

Query: Read off the recorded IC50 for CC(C)C[C@H](N)C(=O)N1CCC([C@@H](N)c2cc(Cl)c(Cl)cc2O)CC1
Reply: < 10 µM

Query: Read off the recorded IC50 for C[C@@](O)(c1cc(Cl)c(Cl)cc1O)C1CCNCC1 (single isomer, unassigned; isomer 1)
Reply: < 10 µM

Query: Read off the recorded IC50 for CN1CCC([C@H](O)c2cc(Cl)c(Cl)cc2O)CC1 (single isomer, unassigned)
Reply: < 10 µM

Query: Read off the recorded IC50 for N[C@@H](c1cc(Cl)c(Cl)cc1O)C1CCN(c2cc[nH]c(=O)c2)CC1
Reply: < 0.5 µM

Query: Read off the recorded IC50 for Nc1[nH]ncc1C(=O)N1CCC([C@@H](N)c2cc(Cl)c(Cl)cc2O)CC1
Reply: < 0.5 µM

Query: Read off the recorded IC50 for O=C([C@H]1CCNC1)N1CCC[C@@H]([C@@H](O)c2c(O)ccc(Cl)c2Cl)CC1 (single isomer, unassigned; isomer 3)
Reply: < 10 µM

###

Target: Kv1.3 potassium channel (Homo sapiens, UniProt P22001)
Assay: Kv1.3 potassium channel blocker activity, automated whole-cell patch clamp (Patchliner)
Details: CHO-K1 cells stably expressing Kv1.3; whole cell current inhibition; read-out: Kv1.3_IC50
pIC50: −log10 of the molar value.
assay.metric: pIC50

Query: Using Kv1.3 potassium channel (Homo sapiens, UniProt P22001) as the test system, report measured pIC50 of Cc1cc(O)c([C@H](N)C2CCN(C(=O)C3CNC3)CC2)cc1Cl .
Reply: > 6.30

Query: Using Kv1.3 potassium channel (Homo sapiens, UniProt P22001) as the test system, report measured pIC50 of N[C@@H](c1cc(Cl)c(Cl)cc1O)C1CCN(C(=O)C2CNC(=O)NC2)CC1 .
Reply: > 6.30

Query: Using Kv1.3 potassium channel (Homo sapiens, UniProt P22001) as the test system, report measured pIC50 of Cc1cc(O)c([C@H](N)C2CCN(C(=O)[C@H](O)CO)CC2)cc1Cl .
Reply: > 6.30

Query: Using Kv1.3 potassium channel (Homo sapiens, UniProt P22001) as the test system, report measured pIC50 of Cc1cc(O)c([C@H](N)C2CCN(C(=O)c3c[nH]c(=O)cc3Cl)CC2)cc1Cl .
Reply: > 6.30

Query: Using Kv1.3 potassium channel (Homo sapiens, UniProt P22001) as the test system, report measured pIC50 of C[C@@]1(C(=O)N2CCC([C@@H](N)c3cc(Cl)c(Cl)cc3O)CC2)CCCN1 .
Reply: > 6.30

Query: Using Kv1.3 potassium channel (Homo sapiens, UniProt P22001) as the test system, report measured pIC50 of O=S(=O)([C@@H]1CCNC1)N1CCC([C@H](O)c2cc(Cl)c(Cl)cc2O)CC1 (single isomer, unassigned; isomer 2) .
Reply: > 5.00

Query: Using Kv1.3 potassium channel (Homo sapiens, UniProt P22001) as the test system, report measured pIC50 of N[C@@H](c1cc(Cl)c(Cl)cc1O)[C@@H]1CCCN(C(=O)[C@H](O)CO)C1 .
Reply: > 5.00

Query: Using Kv1.3 potassium channel (Homo sapiens, UniProt P22001) as the test system, report measured pIC50 of N[C@@H](c1cc(Cl)c(Cl)cc1O)C1CCN(C(=O)[C@@H]2CNC(=O)C2)CC1 (single isomer, unassigned; isomer 1) [Compound 296] .
Reply: > 6.30

Query: Using Kv1.3 potassium channel (Homo sapiens, UniProt P22001) as the test system, report measured pIC50 of NC(=O)N1CCC([C@H](N)c2cc(Cl)c(Cl)cc2O)CC1 (single isomer, unassigned) .
Reply: > 6.30

Query: Using Kv1.3 potassium channel (Homo sapiens, UniProt P22001) as the test system, report measured pIC50 of NC(c1c(O)ccc2ccccc12)C1CCNCC1 (centres unmarked) .
Reply: > 4.52

Query: Using Kv1.3 potassium channel (Homo sapiens, UniProt P22001) as the test system, report measured pIC50 of N[C@@H](c1cc(Cl)c(Cl)cc1O)C1CCN(C(=O)C2CNC2)CC1 .
Reply: > 6.30

Query: Using Kv1.3 potassium channel (Homo sapiens, UniProt P22001) as the test system, report measured pIC50 of NC(c1c(O)cc(Cl)c(Cl)c1Cl)C1CCNCC1 (centres unmarked) .
Reply: > 5.00

Query: Using Kv1.3 potassium channel (Homo sapiens, UniProt P22001) as the test system, report measured pIC50 of Oc1cc(Cl)c(Cl)cc1[C@H](O)C1CCNCC1 (single isomer, unassigned) .
Reply: > 5.00

Query: Using Kv1.3 potassium channel (Homo sapiens, UniProt P22001) as the test system, report measured pIC50 of N[C@@H](c1cc(Cl)c(Cl)cc1O)[C@H]1CCNC1 (single isomer, unassigned; diastereoisomer 1) .
Reply: > 5.00

Query: Using Kv1.3 potassium channel (Homo sapiens, UniProt P22001) as the test system, report measured pIC50 of O=C([C@@H]1CCNC1)N1CCC(C(O)c2cc(Cl)c(Cl)cc2O)CC1 (some centres unmarked) .
Reply: > 6.30

Query: Using Kv1.3 potassium channel (Homo sapiens, UniProt P22001) as the test system, report measured pIC50 of N[C@@H](c1cc(Cl)c(Cl)cc1O)C1CCN(C(=O)[C@H]2CCC(=O)N2)CC1 .
Reply: > 6.30

Query: Using Kv1.3 potassium channel (Homo sapiens, UniProt P22001) as the test system, report measured pIC50 of CC(=O)N1CCC(C(CN)c2cc(Cl)c(Cl)cc2O)CC1 (centres unmarked) .
Reply: > 4.52

Query: Using Kv1.3 potassium channel (Homo sapiens, UniProt P22001) as the test system, report measured pIC50 of Cc1cc(O)c([C@H](N)C2CCN(C(=O)CO)CC2)cc1Cl .
Reply: > 6.30

Query: Using Kv1.3 potassium channel (Homo sapiens, UniProt P22001) as the test system, report measured pIC50 of N[C@@H](c1cc(Cl)c(Cl)cc1O)C1C2CCC1CN(C(=O)[C@H](O)CO)C2 (some centres unmarked) .
Reply: > 5.00

Query: Using Kv1.3 potassium channel (Homo sapiens, UniProt P22001) as the test system, report measured pIC50 of N[C@@H](c1cc(Cl)c(Cl)cc1O)C1CCN(C(=O)[C@@H]2COCCO2)CC1 .
Reply: > 5.00

Query: Using Kv1.3 potassium channel (Homo sapiens, UniProt P22001) as the test system, report measured pIC50 of Cc1cc(O)c([C@H](N)C2CCN(C(=O)c3ccncc3)CC2)cc1Cl .
Reply: > 6.30

Query: Using Kv1.3 potassium channel (Homo sapiens, UniProt P22001) as the test system, report measured pIC50 of CC(=O)N1CC(C(=O)N2CCC([C@@H](N)c3cc(Cl)c(Cl)cc3O)CC2)C1 .
Reply: > 5.00

Query: Using Kv1.3 potassium channel (Homo sapiens, UniProt P22001) as the test system, report measured pIC50 of N[C@@H](c1cc(Cl)c(Cl)cc1O)C1CCN(C(=O)N2CC(O)(CO)C2)CC1 .
Reply: > 6.30

Query: Using Kv1.3 potassium channel (Homo sapiens, UniProt P22001) as the test system, report measured pIC50 of CC(=O)N[C@@H](c1cc(Cl)c(Cl)cc1O)C1CCNCC1 (single isomer, unassigned) .
Reply: > 4.52

Query: Using Kv1.3 potassium channel (Homo sapiens, UniProt P22001) as the test system, report measured pIC50 of N[C@@H](c1cc(Cl)c(Cl)cc1O)C1CCN(S(=O)(=O)CCO)CC1 .
Reply: > 6.30

Query: Using Kv1.3 potassium channel (Homo sapiens, UniProt P22001) as the test system, report measured pIC50 of N[C@@H](c1cc(Cl)c(Cl)cc1O)C1CCN(C(=O)[C@H](O)CO)CC1 (single isomer, unassigned) .
Reply: > 6.30

Query: Using Kv1.3 potassium channel (Homo sapiens, UniProt P22001) as the test system, report measured pIC50 of Cc1cc(O)c([C@H](N)C2CCN(C(=O)[C@H](O)CO)CC2)c(F)c1Cl .
Reply: > 6.30

Query: Using Kv1.3 potassium channel (Homo sapiens, UniProt P22001) as the test system, report measured pIC50 of N[C@@H](c1cc(Cl)c(Cl)cc1O)C1CCN(C(=O)C2COCCN2)CC1 (some centres unmarked) .
Reply: > 5.00

Query: Using Kv1.3 potassium channel (Homo sapiens, UniProt P22001) as the test system, report measured pIC50 of Cc1cc(CN2CCC(C(N)c3cc(Cl)c(Cl)cc3O)CC2)no1 (centres unmarked) .
Reply: > 5.00
